# Test system: MS2 coat protein
# Test summary: apparent KD of MS2 coat protein; higher = weaker reporter binding
# Applied conditions: Eterna round: R107; input ligand: theophylline 20 uM
For each entry below, report its apparent KD of MS2 coat protein value.
Field: numeric (nM). Do not append units.

Query :: Returns the measured apparent KD of MS2 coat protein for the input sequence. Input: UACUUGCUGACGGCCGCCACUAGAACAUGAGGAUCACCCAUGUACGGCGGCCGUCAUGGGUGGACUAGGACCGGGUCAGCAAGAU [(Trp1)-(Ms2)-(T)'-(M)'-(Trp2)_Design6]
Result :: 20.5

Query :: Next sequence up: ACAUGAGGAUCACCCAUGUAACAACGGGAAGGAGCGCCAAACAAGGCAGGUAGGUCGCCCACAUGAGGAUCACCCAUGUGUUGGG [Exclusion Arginine A GF 27]
Result :: 40.7

Query :: Next sequence up: AAUGUGAAGGCGGCCGCCACUGAUAAUAGACAUGAGGAUCACCCAUGUAUAAAUCCUCAAUAAGACAGGACCGGGCCAUCUACGU [#25 Exclusion Tryptophan B]
Result :: 134

Query :: Next sequence up: GCUUGGGUCGCACGGCCCUGGCGGUGCGAUACCAGCACGGUAACGUGCCCUUGGCAGCGCACAUGAGGAUCACCCAUGUGGUGCG [#1 Exclusion - Theophylline A Attempt #23 (HarryS)]
Result :: 25.6

Query :: Next sequence up: GUCUCUGGGAGAAGGAGCGUGAAGACAUGAGGAUCACCCAUGUAGAGGCGCCGACGGCGUUCGCAGGUAGGUCGCUCCCAGAGAC [#1 Same State - Arginine B Attempt #18 (HarryS)]
Result :: 44.5

Query :: Next sequence up: UGUGGGUCCGAAGAUACCAGCCAGCACAGCAUGUGUUUAAACAUGAGGAUCACCCAUGUCGGCCCUUGGCAGCUUGGUUUGGACG [theeternabot_exclusion_MS2_Theo_B_7]
Result :: 19.8

Query :: Next sequence up: GCACUACAUGAGGAUCACCCAUGUGCAGAUACCAGAGGUGUAUGCCUCCCUUGGCAGCUGAGUAGGUCUGGAGGGCUAUUGGUUU [Same State Theophylline A GF14]
Result :: 27.8

Query :: Next sequence up: ACAUGAGGAUCACCCAUGUGUGUAAGUCCUCGAGGACCGGUACGGCCGCCACUCGAUUGAGUGUAAGUUGAAUGUAACAUUCAAC [whbob_SS_trypto A_2s10]
Result :: 22.8

Query :: Next sequence up: AGCGACAUGCGUGAUACCAGCUACAUGAGGAUCACCCAUGUACGUAGGAAACUACUGUGUAGCCCUUGGCAGCAUAGUGCAUGUC [Exclusion - Theophylline B (Freestyle 21)]
Result :: 20

Query :: Next sequence up: GUAUUAAGAAAACUUGAUACAGUGGGUGAACGAGGACCGGUACGGCCGCCACUCGGACAUGAGGAUCACCCAUGUCCAUGUGAAA [AstrosExyTryA#11]
Result :: 18.6

Query :: Next sequence up: GGGCAAGAGGGAAGGAGCGUCAGCUGAGUAACAUGAGGAUCACCCAUGUAGCACAUAGUGUGACAGGUAGGUCGCCCUCUGCCCU [SS-ArgB6]
Result :: 10.4

Query :: Next sequence up: AACAUGAGGAUCACCCAUGUAAAAUGGGAUACCAGAGACGAAAGUCUCCCUUGGCAGCCCACUGCCUCCUUUACGAAAGUAGAGG [Theophylline A 15]
Result :: 32.5

Query :: Next sequence up: UGGAGUAGGGUAAAUAGGAUAAGUACAGAAGGAGCGCGAAUAAACGCAGGUAGGUCGCUGGAACACAUGAGGAUCACCCAUGUUG [Same State Arginine A GF 24]
Result :: 26.2
